EXPERIMENTAL DETAILS: Small-animal PET of PC-3 tumor-bearing mice
EXPERIMENTAL CONTEXT: male, athymic nude, mouse, in vivo, iv, total radioactivity, PC-3 tumor uptake with BBN blocking, 1 h, 3.7 MBq, co-injected Aca-BBN(7-14) 15 mg/kg
Procedure: (a) PET scans and image analysis were performed using a micro-PET R4 rodent model scanner (Siemens Medical Solutions) as reported by Li et al., J. Nucl. Med. (2007) 48: 1162-1171 and Wu et al., J Nucl. […] The average radioactivity concentration (accumulation) within a tumor or an organ was obtained from mean pixel values within the multiple ROI volume, which were converted to counts/mL/min using a conversion factor. […]
METRIC: tissue uptake at 1 h (%ID/g)

| COMPOUND | QUANTITY UNIT | NUMERIC READOUT |
| --- | --- | --- |
| CSCC[C@H](NC(=O)[C@H](CC(C)C)NC(=O)[C@H](Cc1c[nH]cn1)NC(=O)CNC(=O)[C@@H](NC(=O)[C@H](C)NC(=O)[C@H](Cc1c[nH]c2ccccc12)NC(=O)[C@H](CCC(N)=O)NC(=O)CCCCCNC(=O)CC[C@H](NC(=O)COCCOCCOCCNC(=O)c1ccc([18F])cc1)C(=O)NCCCC[C@@H]1NC(=O)[C@@H](Cc2ccc(O)cc2)NC(=O)[C@H](CC(=O)O)NC(=O)CNC(=O)[C@H](CCCNC(=N)N)NC1=O)C(C)C)C(N)=O [^18F-FB-PEG3-RGD-BBN] | %ID/g | 1.58 |
| CSCC[C@H](NC(=O)[C@H](CC(C)C)NC(=O)[C@H](Cc1c[nH]cn1)NC(=O)CNC(=O)[C@@H](NC(=O)[C@H](C)NC(=O)[C@H](Cc1c[nH]c2ccccc12)NC(=O)[C@H](CCC(N)=O)NC(=O)CCCCCNC(=O)CC[C@H](NC(=S)Nc1ccc(C[C@H]2CN(CC(=O)O)CCN(CC(=O)O)CCN2CC(=O)O)cc1)C(=O)NCCCC[C@@H]1NC(=O)[C@@H](Cc2ccc(O)cc2)NC(=O)[C@H](CC(=O)O)NC(=O)CNC(=O)[C@H](CCCNC(=N)N)NC1=O)C(C)C)C(N)=O [^68Ga-NOTA-RGD-BBN, metal not drawn] | %ID/g | 1.61 |
